test system: protein kinase; experiment: HTS ATP-utilizing enzyme assay, off-chip mobility-shift format (Caliper HTS 250); format: biochemical, human; settings: test compound 10 μM; active = activity greater than three-sigma from the mean of the predominately inactive population for that enzyme
measure: protein kinase against which the compound exhibits inhibitory activity (Table 3)

>>> reported("COc1ccccc1-n1c(SCC(O)c2ccccc2)nnc1-c1cccc(Cl)c1 (centres unmarked)")
"ROCK2"
>>> reported("O=S(=O)(CCSc1nnc(Cc2ccccc2)n1-c1ccccc1)Nc1ccccc1")
"AKT2"
>>> reported("O=c1[nH]c(CSc2nnc(-c3ccccc3O)n2CCc2ccccc2)nc2ccccc12")
"AKT1"
>>> reported("COCCCn1c(SCc2ccc(C(C)(C)C)cc2)nnc1-c1ccncc1")
"DYRK2"

----------
molecular target: protein kinase; assay: HTS ATP-utilizing enzyme assay, off-chip mobility-shift format (Caliper HTS 250); type: biochemical, human; details: kinase(s) for which the compound exhibits protein kinase inhibitory activity; test compound 10 μM; active = greater than three-sigma from the mean activity of inactive compounds
measure: Kinase

>>> reported("COc1ccc(-n2c(CNc3ccccc3Cl)nnc2SCC(=O)Nc2cccc(C(C)=O)c2)cc1")
"CHEK2"
>>> reported("COCCn1c(SCC(=O)Nc2ccccc2F)nnc1-c1cc2ccccc2cc1O")
"AURORA-A"
>>> reported("Cc1ccc(NCc2nnc(SCC(=O)Nc3ccc(C)cc3Br)n2-c2ccccc2)cc1")
"AURORA-A"
>>> reported("O=C(CSc1nnc(-c2ccc([N+](=O)[O-])cc2)n1/C=C/CN1CCOCC1)N1CCOCC1")
"FYN"
>>> reported("CCOc1ccc(NCc2nnc(S)n2-c2ccc(C)cc2)cc1")
"AURORA-A"
>>> reported("Cc1ccc(-n2c(SCC(=O)N3CCCCC3)nnc2-c2ccncc2)cc1")
"FYN"

Kindly give each listed record's Kinase.
1. Cc1nnc(SCC(N)=O)n1-c1ccccc1
2. O=C(CSc1nnc(-c2ccc(O)cc2)n1Cc1ccco1)N1CCc2ccccc21

Completion:
DYRK2
AURORA-A

Prompt: Reported Kinase, compound CCn1c(CNc2ccc(C)cc2)nnc1SCC(=O)Nc1cccc(Cl)c1 : ____
Completion: CHEK2

----------
biological target: protein kinase; assay: HTS ATP-utilizing enzyme assay, off-chip mobility-shift format (Caliper HTS 250); format: biochemical, human; details: kinase(s) for which the compound exhibits protein kinase inhibitory activity; test compound 10 μM; active = greater than three-sigma from the mean activity of inactive compounds
measure: Kinase

Please review the following examples before continuing.
>>> reported("CCn1c(SCC(=O)Nc2cc(OC)c(OC)cc2C(=O)O)nnc1-c1ccc(O)cc1")
"AURORA-A"
>>> reported("Cn1c(CNc2ccc(F)cc2)nnc1SCC(=O)Nc1ccc([N+](=O)[O-])cc1")
"CHEK2"
>>> reported("Cn1c(SCC(=O)Nc2nc3c(s2)CCCC3)nnc1C1CC1")
"CDK2-cyclinE"
>>> reported("Cn1c(SCC(=O)N2CCOCC2)nnc1-c1ccco1")
"FYN"
>>> reported("C=CCn1c(SCC(=O)NCCCN2CCOCC2)nnc1-c1sc2ccccc2c1Cl")
"LYNA"
>>> reported("CC(Sc1nnc(-c2cccnc2)n1-c1ccccc1)C(=O)O (centres unmarked)")
"AURORA-A"
>>> reported("O=C(CSc1nnc(-c2ccco2)n1-c1ccccc1)NCCc1ccccc1")
"AKT1"
>>> reported("CCOC(=O)c1ccc(NC(=O)CSc2nnc(COc3ccc(OC)cc3)n2CC)cc1")
"FYN"
>>> reported("C=C(C)Cn1c(SCC(=O)O)nnc1-c1ccc(OC)cc1")
"MSK1"
>>> reported("CCn1c(CNc2cccc(Cl)c2)nnc1SCC(=O)NCc1ccco1")
"PAK2"

Go through the list and state Kinase for each entry.
1. O=C(CSc1nnc(CSc2nc3ccccc3s2)n1-c1ccccc1)N1CCN(CCO)CC1
2. COC(=O)c1ccccc1NC(=O)CSc1nnc(-c2ccccc2O)n1CCc1ccccc1
3. COc1ccc(OC)c(C(=O)CSc2nnc(-c3ccccc3N)n2C)c1
4. CNC(=O)CSc1nnc(COc2ccccc2)n1Cc1ccccc1

Completion:
1: HCK; 2: AURORA-A; 3: PDGFRR-α; 4: FYN

Dear colleague, could you send me Kinase for each of the items below? Thanks.
1. C=C(C)Cn1c(S)nnc1-c1ccccc1OC
2. COc1ccc(-c2nnc(SCC(=O)Nc3ccccc3O)n2-c2ccccc2)cc1OC
3. CCn1c(COc2ccccc2)nnc1SCC(=O)Nc1sc2c(c1C#N)CCCC2
4. C=C(C)Cn1c(S)nnc1-c1ccccc1Br
5. COc1ccc(-n2c(SCC(=O)O)nnc2-c2cccnc2)cc1

Completion:
1: CDK2-cyclinE; 2: AURORA-A; 3: AKT1; 4: PDGFRR-α; 5: AURORA-A

----------
system: protein kinase; experiment: HTS ATP-utilizing enzyme assay, off-chip mobility-shift format (Caliper HTS 250); assay type: biochemical, human; details: test compound 10 μM; active = activity greater than three-sigma from the mean of the predominately inactive population for that enzyme
measure: protein kinase against which the compound exhibits inhibitory activity (Table 3)

Known results for compounds:
>>> reported("O=C(CSc1nnc[nH]1)N1c2ccccc2CCc2ccccc21")
"LCK"
>>> reported("CN(C)CCCSc1nnc(C(C)(C)C)[nH]1")
"c-TAK1"
>>> reported("COc1ccccc1-n1c(SC(C)C(=O)Nc2cccc(NC(=O)c3ccco3)c2)nnc1-c1cccc(Cl)c1 (centres unmarked)")
"ROCK2"
>>> reported("CCC(c1ccccc1)c1nnc(SCc2ccc(C(=O)OC)cc2)[nH]1 (centres unmarked)")
"FLT-3"

Items follow; give protein kinase against which the compound exhibits inhibitory activity (Table 3) for each.
1. COc1ccccc1-n1c(SCC(=O)c2ccc(F)cc2)nnc1-c1cccc(Cl)c1
2. CCC(c1ccccc1)c1nnc(SCc2ccccc2)n1CCc1ccc(C)cc1 (centres unmarked)
3. COc1ccccc1-n1c(SCc2cccc(C(=O)O)c2)nnc1-c1cccc(Cl)c1

Completion:
1: ROCK2; 2: c-TAK1; 3: ROCK2

----------
target: protein kinase; experiment: HTS ATP-utilizing enzyme assay, off-chip mobility-shift format (Caliper HTS 250); assay type: biochemical, human; details: kinase(s) for which the compound exhibits protein kinase inhibitory activity; test compound 10 μM; active = greater than three-sigma from the mean activity of inactive compounds
measure: Kinase

>>> reported("CCOc1ccc(NCc2nnc(SCC(=O)NCC3CCCO3)n2-c2ccccc2OC)cc1 (stereo not drawn)")
"FYN"
>>> reported("COCCCn1c(SCC(=O)N2CCCCC2)nnc1-c1ccc(C(C)(C)C)cc1")
"CDK5"
>>> reported("C=CCn1c(CSc2nc3ccccc3s2)nnc1SCC(=O)NCCO")
"HCK"
>>> reported("COCCn1c(SCC(=O)O)nnc1-c1cc2c(C)nn(-c3ccccc3)c2s1")
"AKT1"
>>> reported("CC(=O)c1ccc(NC(=O)CSc2nnc(-c3ccc(O)cc3)n2C)cc1")
"AKT1"

Each molecule below has a recorded value; state its Kinase.
1. CCOC(=O)CN(C(=O)CSc1nnc(-c2ccncc2)n1CCCN(C)C)c1cccc([N+](=O)[O-])c1
2. CC(Sc1nnc(-c2ccc(O)cc2)n1Cc1ccco1)C(=O)Nc1ccc([N+](=O)[O-])cc1 (stereo not drawn)
3. Cn1c(CNc2cccc(C(F)(F)F)c2)nnc1SCC(=O)Nc1ccc2c(c1)OCO2
4. Cc1cccc(OCc2nnc(SC(C)C(=O)O)n2C)c1 (stereo not drawn)
5. CCOC(=O)c1c(NC(=O)CSc2nnc(-c3ccccc3O)n2-c2ccc(C)cc2)sc(C(C)=O)c1C

Completion:
["CDK1", "LCK", "AURORA-A", "AURORA-A", "LCK"]

Please go through the list and note Kinase for each molecule.
1. Cn1c(SCC(=O)N2CCCC2)nnc1-c1ccc(S(=O)(=O)N2CCOCC2)cc1
2. COc1ccc(-c2nnc(SCC(=O)Nc3ccc4c(c3)OCO4)n2C)cc1
3. COc1ccc(NCc2nnc(SCC(=O)O)n2-c2ccc(C)cc2)cc1
4. CCn1c(SCC(=O)c2ccccc2)nnc1-c1cccnc1
5. COC(=O)c1ccc(NC(=O)CSc2nnc(-c3ccccc3O)n2-c2ccccc2OC)cc1
6. O=C(CSc1nnc(Cc2ccccc2)n1C1CCCCC1)Nc1cccc(O)c1

Completion:
1. AURORA-A
2. AKT1
3. FYN
4. SYK
5. AURORA-A
6. AURORA-A

----------
biological target: protein kinase; assay: HTS ATP-utilizing enzyme assay, off-chip mobility-shift format (Caliper HTS 250); assay type: biochemical, human; conditions: kinase(s) for which the compound exhibits protein kinase inhibitory activity; test compound 10 μM; active = greater than three-sigma from the mean activity of inactive compounds
measure: Kinase

>>> reported("CCOC(=O)CN(C(=O)CSc1nnc(-c2ccccc2)n1-c1ccccc1OC)c1cccc([N+](=O)[O-])c1")
"GSK3-α"
>>> reported("COc1ccc(-n2c(SC(C)C(=O)Nc3c(C)cccc3C)nnc2-c2ccc(O)cc2)cc1 (stereo not shown)")
"AKT1"
>>> reported("COc1ccc(-n2c(CNc3ccc(C)cc3)nnc2SCC(=O)O)cc1")
"PDGFRR-α"
>>> reported("O=C(CSc1nnc(-c2ccc(O)cc2)n1Cc1ccccc1)c1ccccc1")
"GSK3-α"
>>> reported("Cn1cnnc1SCC(=O)N1c2ccccc2Sc2ccccc21")
"LCK"
>>> reported("COc1ccc(C(=O)CSc2nnc(-c3cc4ccccc4cc3O)n2Cc2ccco2)cc1")
"AURORA-A"
>>> reported("COc1ccc(OCc2nnc(SCC(=O)O)n2-c2ccc(C)cc2)cc1")
"AURORA-A"
>>> reported("COc1ccc(-c2nnc(SCC(C)=O)n2-c2ccccc2)cc1")
"INSR"
>>> reported("COc1ccc(-c2nnc(S)n2Cc2ccco2)cc1OC")
"MSK2"
>>> reported("CCn1c(SCC(=O)Nc2sc3c(c2C#N)CCCC3)nnc1-c1ccc(O)cc1")
"AURORA-A"

For every record below, what is its Kinase?
1. Cc1ccc(-n2c(CNc3cccc(Cl)c3)nnc2SCC(=O)c2ccc(Cl)cc2)cc1
2. O=C(CSc1nnc(CSc2nc3ccccc3s2)n1-c1ccccc1)NCCN1CCOCC1
3. N#CCSc1nnc(-c2ccco2)n1-c1ccccc1
4. Cc1ccc(-n2c(SCC(=O)O)nnc2-c2cccnc2)cc1
5. CCn1c(S)nnc1CSc1nc(C)cc(C)n1
6. O=c1c(Sc2nnc(-c3ccccc3)n2C2CCCCC2)c(Br)cnn1-c1ccccc1
7. Cc1cccc(NCc2nnc(S)n2-c2ccccc2)c1

Completion:
["LYNA", "CSK", "CHEK2", "AURORA-A", "GSK3-α", "GSK3-α", "GSK3-α"]

Where do the numbers come from? From patent US20050288347A1.
